Values were extracted from ChEMBL document CHEMBL3988442.

Species: Homo sapiens
Assay: To identify inhibition of the IFN signalling (Jak-Stat) pathway via expression of an eGFP reporter gene under the control of an IFN-stimulated response element (ISRE) containing MxA promoter.
Assay type: functional
Set-up: scale not given: direction of the effect not stated beside the values
Details: 30 µM
In this section we review reported Percent Effect values for a set of compounds.

{"COMPOUND": "Cc1cc(CN2CC[C@H]3C(=O)N(c4ccccc4)CCO[C@H]3C2)no1", "UNIT_OF_MEASUREMENT": "%", "Percent Effect": 19.1}
{"COMPOUND": "CN(Cc1cnn(C)c1)C(=O)NCc1nnc2n1CCC2", "UNIT_OF_MEASUREMENT": "%", "Percent Effect": 3.9}
{"COMPOUND": "O=C(c1cnoc1)N1CCC[C@]2(C[C@@H](OCc3ccccn3)CO2)C1", "UNIT_OF_MEASUREMENT": "%", "Percent Effect": 1.81}
{"COMPOUND": "CCOc1cc(C(=O)N2CCCC(c3noc(C)n3)C2)ccn1 (stereo not given)", "UNIT_OF_MEASUREMENT": "%", "Percent Effect": -18.5}
{"COMPOUND": "Cc1nc(CN2CCCC(NCCc3ccccc3Cl)C2)no1 (stereo not given)", "UNIT_OF_MEASUREMENT": "%", "Percent Effect": -4.21}
{"COMPOUND": "Cc1cnn(CC2CCCCN2CCC(=O)Nc2cc(C)on2)c1 (stereo not given)", "UNIT_OF_MEASUREMENT": "%", "Percent Effect": -10.4}
{"COMPOUND": "COc1ccc2nnc(CCCC(=O)NCCC3=CCCCC3)n2n1", "UNIT_OF_MEASUREMENT": "%", "Percent Effect": 23.4}
{"COMPOUND": "Cc1nc(CC(=O)N2CCCN(c3ccc(C#N)cc3)CC2)cs1", "UNIT_OF_MEASUREMENT": "%", "Percent Effect": 2.28}
{"COMPOUND": "COCC1CC2(CCN(C(=O)c3occc3C)CC2)CO1 (stereo not given)", "UNIT_OF_MEASUREMENT": "%", "Percent Effect": 5.99}
{"COMPOUND": "COc1cc(CC(O)CO)c(OC)c2c1OCO2 (stereo not given)", "UNIT_OF_MEASUREMENT": "%", "Percent Effect": 5.7}
{"COMPOUND": "CCS(=O)(=O)Nc1ccc(C(=O)NCCCN2CCCC2)cc1", "UNIT_OF_MEASUREMENT": "%", "Percent Effect": -9}
{"COMPOUND": "CC(NC(=O)NCCCOC1CCCCC1)c1nncn1C (stereo not given)", "UNIT_OF_MEASUREMENT": "%", "Percent Effect": 5.68}
{"COMPOUND": "O=C(CN1CCC(c2cccc(F)c2)C1)NCC(F)(F)F (stereo not given)", "UNIT_OF_MEASUREMENT": "%", "Percent Effect": 36.1}
{"COMPOUND": "CC(O)CN1CCC(CNCc2cccc(Br)c2)CC1 (stereo not given)", "UNIT_OF_MEASUREMENT": "%", "Percent Effect": 11.2}
{"COMPOUND": "O=C(Cc1ccc(F)cc1)N1CCn2cc(Cn3cccn3)nc2C1", "UNIT_OF_MEASUREMENT": "%", "Percent Effect": -1.16}
